Test system: Vero E6 infected with SARS-CoV-2
TEST: inhibition of SARS-CoV-2 cytopathic effect; higher = more antiviral protection, active = above 15
ASSAY CONTEXT: 100 nM; 48 h
This section presents compounds with their documented inhibition of SARS-CoV-2 cytopathic effect values.

Record request: inhibition of SARS-CoV-2 cytopathic effect value, item `CCc1cc(/C(C)=N/OCc2ccc(C3CCCCC3)c(C(F)(F)F)c2)ccc1CN1CC(C(=O)O)C1` -0.01% (inactive)

Which inhibition of SARS-CoV-2 cytopathic effect value belongs to `COCCNC(=O)COc1ccc(OCCNC[C@H](O)COc2ccccc2)cc1` ? -1.53% (inactive)

====

Tested on: Vero E6 infected with SARS-CoV-2
TEST: morphology score (similarity to uninfected cells); higher = more like uninfected cells
ASSAY CONTEXT: 24 h
Note to self: values exactly at 0.1 are t. So morphology score at or above 0.1 is t, below is f.

Quick check, morphology score >= 0.1? O=C(OCC(O)CO)c1ccccc1Nc1ccnc2c(C(F)(F)F)cccc12 (centres undefined) [floctafenine] (10 µM) f

I'd appreciate it if you could say whether CCCC[C@@H](C=O)NC(=O)[C@H](CC(C)C)NC(=O)OCc1ccccc1 [calpeptin] (10 µM) has morphology score at least equal to 0.1. t

====

Tested on: Vero E6 infected with SARS-CoV-2
TEST: inhibition of SARS-CoV-2 cytopathic effect; higher = more antiviral protection, active = above 15
ASSAY CONTEXT: 8.33 nM; 48 h
MEASURE NAME: inhibition of SARS-CoV-2 cytopathic effect (%)
The response must be a number in % with no trailing unit.

{"COMPOUND": "CCNC1=Nc2ccc(Cl)cc2C(C)(c2ccccc2)O1 (centres undefined)", "RECORDED NUMBER": 2.31}
{"COMPOUND": "CCCC[C@]1(CC)CS(=O)(=O)c2cc(CNC(CC(=O)O)CC(=O)O)c(OC)cc2[C@@H](c2ccccc2)N1", "RECORDED NUMBER": 3.04}
{"COMPOUND": "C[N+](C)(C)CCOC(=O)CCC(=O)OCC[N+](C)(C)C [succinylcholine-chloride]", "RECORDED NUMBER": -1.42}

Entry under review: Cc1cccc(C)c1OCC(C)N (centres undefined) . Reported inhibition of SARS-CoV-2 cytopathic effect? 3.45

====

Tested on: Vero E6 infected with SARS-CoV-2
TEST: inhibition of SARS-CoV-2 cytopathic effect; higher = more antiviral protection, active = above 15
ASSAY CONTEXT: 833.33 nM; 48 h
Property: inhibition of SARS-CoV-2 cytopathic effect; scope: individual molecules
Kindly answer with a numeric value in %, unit omitted.

Recorded results for 10 molecules are shown here.
{"MOLECULE": "COc1ccncc1C(=O)NC(=O)Nc1ccc(-c2ccccc2)c(C(F)(F)F)c1", "SYSTEM NAME": "Vero E6 infected with SARS-CoV-2", "READOUT UNIT": "%", "RECORDED NUMBER": -0.2}
{"MOLECULE": "CNC(=O)c1cc2c(cn1)[nH]c1ccccc12", "SYSTEM NAME": "Vero E6 infected with SARS-CoV-2", "READOUT UNIT": "%", "RECORDED NUMBER": -0.08}
{"MOLECULE": "C[C@H](N)[C@H](O)c1ccc(O)c(O)c1", "SYSTEM NAME": "Vero E6 infected with SARS-CoV-2", "READOUT UNIT": "%", "RECORDED NUMBER": 1.27}
{"MOLECULE": "C=CCN1CC[C@]23c4c5ccc(O)c4O[C@H]2/C(=N/NC(=O)c2ccccc2)CC[C@@]3(O)[C@H]1C5 [naloxone-benzoylhydrazone]", "SYSTEM NAME": "Vero E6 infected with SARS-CoV-2", "READOUT UNIT": "%", "RECORDED NUMBER": 5.45}
{"MOLECULE": "Cc1cc(Cl)ccc1OCCCC(=O)NO", "SYSTEM NAME": "Vero E6 infected with SARS-CoV-2", "READOUT UNIT": "%", "RECORDED NUMBER": 1.7}
{"MOLECULE": "CCC[C@@]1(CCc2ccccc2)CC(O)=C([C@H](CC)c2cccc(NS(=O)(=O)c3ccc(C(F)(F)F)cn3)c2)C(=O)O1", "SYSTEM NAME": "Vero E6 infected with SARS-CoV-2", "READOUT UNIT": "%", "RECORDED NUMBER": 0.71}
{"MOLECULE": "COc1cc(C(C)=O)ccc1OCCCN1CCC(c2noc3cc(F)ccc23)CC1", "SYSTEM NAME": "Vero E6 infected with SARS-CoV-2", "READOUT UNIT": "%", "RECORDED NUMBER": -0.53}
{"MOLECULE": "CCOC(=O)CCC(=O)O[C@H]1[C@H](O[C@@H]2[C@@H](C)[C@H](O[C@H]3C[C@@](C)(OC)[C@@H](O)[C@H](C)O3)[C@@H](C)C(=O)O[C@H](CC)[C@@](C)(O)[C@H](O)[C@@H](C)C(=O)[C@H](C)C[C@@]2(C)O)O[C@H](C)C[C@@H]1N(C)C [erythromycin-ethylsuccinate]", "SYSTEM NAME": "Vero E6 infected with SARS-CoV-2", "READOUT UNIT": "%", "RECORDED NUMBER": 0.29}
{"MOLECULE": "CC1(C)S[C@@H]2[C@H](N3C(=O)[C@@H](c4ccccc4)NC3(C)C)C(=O)N2[C@H]1C(=O)O", "SYSTEM NAME": "Vero E6 infected with SARS-CoV-2", "READOUT UNIT": "%", "RECORDED NUMBER": 2.11}
{"MOLECULE": "CC1CCN(CC[C@H]2CCCN2S(=O)(=O)c2cccc(O)c2)CC1", "SYSTEM NAME": "Vero E6 infected with SARS-CoV-2", "READOUT UNIT": "%", "RECORDED NUMBER": 2.79}

Form: Entry = `CS(=O)(=O)c1ccc(-c2cc(Br)sc2-c2ccc(F)cc2)cc1` | System = Vero E6 infected with SARS-CoV-2 | inhibition of SARS-CoV-2 cytopathic effect = ____ -3.46

Return inhibition of SARS-CoV-2 cytopathic effect measured with Vero E6 infected with SARS-CoV-2 given this molecule: `CC(C)NC(=O)c1ccc(C#Cc2ccncc2)cn1` 1.58

Short answer please: inhibition of SARS-CoV-2 cytopathic effect, Vero E6 infected with SARS-CoV-2, entry `CCOc1ccc(Cc2cc([C@@H]3O[C@H](SC)[C@@H](O)[C@H](O)[C@H]3O)ccc2Cl)cc1` -3.56

Query the reported inhibition of SARS-CoV-2 cytopathic effect for Vero E6 infected with SARS-CoV-2; item: `Cn1nc(C(C)(C)C)cc1C(=O)N[C@@H](Cc1cccc(Cl)c1)C(=O)NCC#N` -5.37

Find the measured inhibition of SARS-CoV-2 cytopathic effect: item `C[C@]12CC[C@@H]3c4ccc(O)cc4CC[C@H]3[C@@H]1C[C@@H](O)[C@@H]2O` , target or system Vero E6 infected with SARS-CoV-2. -1.63

Request: inhibition of SARS-CoV-2 cytopathic effect, test system Vero E6 infected with SARS-CoV-2, entry `COc1cccc(NC(=O)/C=C/c2ccc(Cl)cc2)c1` -0.56
